Assay: Solubility of nilvadipine bulk substance
Type: physicochemical
Conditions: J.P., 1st fluid
property_measured: solubility (µg/mL)
Respond numerically; units are µg/mL and should not be typed.

What value of measured solubility is listed for COC(=O)C1=C(C#N)NC(C)=C(C(=O)OC(C)C)C1c1cccc([N+](=O)[O-])c1 (stereo not shown) ?
1.3

---

Experiment: Solubility of nilvadipine bulk substance
Format: physicochemical
Conditions: J.P., 2nd fluid
property_measured: solubility (µg/mL)
Lab book: enter the figure in µg/mL, no units written.

Recorded solubility of COC(=O)C1=C(C#N)NC(C)=C(C(=O)OC(C)C)C1c1cccc([N+](=O)[O-])c1 (stereo not shown) , please.
1
